biological target: human cannabinoid CB2 receptor (Homo sapiens); construct: expressed in transfected cells; host or cells: Saccharomyces cerevisiae strain MMY23 (expresses a chimeric Gpa1/human Galpha-i3 G-protein alpha subunit); assay: Cannabinoid CB2 receptor agonist activity, yeast reporter assay; type: cell-based
Sequence (P34972 whole entry): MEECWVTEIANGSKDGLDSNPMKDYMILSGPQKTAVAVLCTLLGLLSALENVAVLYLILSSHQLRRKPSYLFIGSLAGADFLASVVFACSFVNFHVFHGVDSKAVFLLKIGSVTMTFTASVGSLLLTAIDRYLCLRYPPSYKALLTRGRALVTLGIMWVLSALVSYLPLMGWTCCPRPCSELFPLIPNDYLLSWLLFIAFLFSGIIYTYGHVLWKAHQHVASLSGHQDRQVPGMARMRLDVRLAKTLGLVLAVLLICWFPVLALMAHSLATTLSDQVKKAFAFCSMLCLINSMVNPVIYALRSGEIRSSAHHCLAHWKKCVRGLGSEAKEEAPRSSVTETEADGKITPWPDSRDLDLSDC
pEC50: −log10 of the molar value.

{"mol-smiles": "O=C(NCc1ccnc(F)c1)c1cnc(Nc2cccc(Cl)c2)nc1C(F)(F)F", "pEC50": "6.00 to 7.70"}
{"mol-smiles": "CC(C)(C)OC(=O)Nc1ccc(CNC(=O)c2cnc(Nc3cccc(Cl)c3)nc2C(F)(F)F)cc1", "pEC50": "< 6.00"}
{"mol-smiles": "O=C(NCc1ccnc(F)c1)c1cnc(Nc2cccc(Cl)c2Cl)nc1C(F)(F)F", "pEC50": "6.00 to 7.70"}
{"mol-smiles": "O=C(O)c1cc(Cl)cc(Nc2ncc(C(=O)NCc3ccc(F)cc3)c(C(F)(F)F)n2)c1", "pEC50": "< 6.00"}
{"mol-smiles": "O=C(NCc1cccnc1)c1cnc(Nc2cccc(Cl)c2)nc1C(F)(F)F", "pEC50": "< 6.00"}
{"mol-smiles": "O=C(NCc1ccncc1)c1cnc(Nc2cc(Cl)ccc2Cl)nc1C(F)(F)F", "pEC50": "6.00 to 7.70"}
{"mol-smiles": "COc1ccccc1Nc1ncc(C(=O)NCc2ccccc2)c(C(F)(F)F)n1", "pEC50": "6.00 to 7.70"}
{"mol-smiles": "N#Cc1ccc(Nc2ncc(C(=O)NCc3ccc(F)cc3)c(C(F)(F)F)n2)cc1Cl", "pEC50": "6.00 to 7.70"}

----------
// reported EC50 for each item listed
target: human cannabinoid CB2 receptor (Homo sapiens); construct: expressed in transfected cells; host or cells: Saccharomyces cerevisiae strain MMY23 (expresses a chimeric Gpa1/human Galpha-i3 G-protein alpha subunit); experiment: Cannabinoid CB2 receptor agonist activity, yeast reporter assay; format: cell-based
measure-name: EC50

{"mol-smiles": "O=C(NCc1ccc(F)cc1)c1cnc(Nc2ccc(Cl)cc2Cl)nc1C(F)(F)F", "result": "20 to 1000 nM"}
{"mol-smiles": "O=C(NCc1ccnc(F)c1)c1cnc(Nc2c(Cl)cccc2Cl)nc1C(F)(F)F", "result": "20 to 1000 nM"}
{"mol-smiles": "O=C(NCc1ccccc1)c1cnc(Nc2cc(Cl)cc(Cl)c2)nc1C(F)(F)F", "result": "20 to 1000 nM"}
{"mol-smiles": "O=C(NCc1ccc(Br)cc1)c1cnc(Nc2cccc(Cl)c2)nc1C(F)(F)F", "result": "> 1000 nM"}

----------
Molecular target: human cannabinoid CB2 receptor (Homo sapiens)
Construct: expressed in transfected cells; host or cells: Saccharomyces cerevisiae strain MMY23 (expresses a chimeric Gpa1/human Galpha-i3 G-protein alpha subunit)
Test: Cannabinoid CB2 receptor agonist activity, yeast reporter assay
Type: cell-based
Conditions: read-out: efficacy (Emax) at the cloned human cannabinoid CB2 receptor
Procedure: Yeast (Saccharomyces cerevisiae) cells expressing the human cannabinoid CB2 receptor were generated by integration of an expression cassette into the ura3 chromosomal locus of yeast strain MMY23. […] Agonists were prepared as 10 mM stocks in DMSO. […] Fluorescence was plotted against compound concentration and iteratively curve fitted using a four parameter fit to generate a concentration effect value.
Structures can show the parent of a compound that is named as a salt.
// reported Emax for each item listed
measure-name: Emax

{"compound": "O=C(NCc1ccncc1)c1cnc(Nc2ccc(Cl)c(Cl)c2)nc1C(F)(F)F", "result": "> 50%"}
{"compound": "N#Cc1ccc(Nc2ncc(C(=O)NCc3ccc(F)cc3)c(C(F)(F)F)n2)cc1Cl", "result": "> 50%"}
{"compound": "CN(Cc1ccccc1)C(=O)c1cnc(Nc2cccc(C#N)c2)nc1C(F)(F)F", "result": "< 50%"}
{"compound": "O=C(NCc1ccc(F)cc1)c1cnc(Nc2cc(C(F)(F)F)cc(C(F)(F)F)c2)nc1C(F)(F)F", "result": "< 50%"}
{"compound": "COc1ccc(Nc2ncc(C(=O)N(C)Cc3ccccc3)c(C(F)(F)F)n2)cc1", "result": "< 50%"}
{"compound": "CN(Cc1ccccc1)C(=O)c1cnc(Nc2cccc(Br)c2)nc1C(F)(F)F", "result": "> 50%"}
{"compound": "O=C(NCc1ccc(Br)cc1)c1cnc(Nc2cccc(Cl)c2)nc1C(F)(F)F", "result": "< 50%"}
{"compound": "CN(Cc1ccccc1)C(=O)c1cnc(Nc2cc(Cl)ccc2Cl)nc1C(F)(F)F", "result": "< 50%"}
{"compound": "C[C@@H](NC(=O)c1cnc(Nc2cccc(Cl)c2)nc1C(F)(F)F)c1ccccc1", "result": "< 50%"}
{"compound": "CN(Cc1ccccc1)C(=O)c1cnc(Nc2ccccc2Cl)nc1C(F)(F)F", "result": "> 50%"}
{"compound": "O=C(NCc1ccnc(F)c1)c1cnc(Nc2cc(Cl)cc(Cl)c2)nc1C(F)(F)F", "result": "> 50%"}
{"compound": "O=C(NCc1ccc(F)c(C(F)(F)F)c1)c1cnc(Nc2cccc(Cl)c2)nc1C(F)(F)F", "result": "< 50%"}
{"compound": "O=C(NCc1ccccc1Cl)c1cnc(Nc2cccc(Cl)c2)nc1C(F)(F)F", "result": "< 50%"}
{"compound": "Cc1cc(CNC(=O)c2cnc(Nc3cccc(Cl)c3)nc2C(F)(F)F)ccn1 [Example 28, hydrochloride]", "result": "> 50%"}
{"compound": "O=C(NCc1ccc(F)cc1)c1cnc(Nc2cc(Cl)ccc2Cl)nc1C(F)(F)F", "result": "> 50%"}
{"compound": "O=C(O)c1cc(Cl)cc(Nc2ncc(C(=O)NCc3ccc(F)cc3)c(C(F)(F)F)n2)c1", "result": "< 50%"}
{"compound": "O=C(NCc1ccnc(F)c1)c1cnc(Nc2ccc(Cl)c(Cl)c2)nc1C(F)(F)F", "result": "> 50%"}
